Test system: TK-10 renal
assayExplanation: NCI tumour cell line growth inhibition, 48 h
measurementType: TGI (µM)
// note: answer is a bare numeric in µM

## Task Dear colleague, I am looking for the recorded TGI of the following compound: C[C@H]1CCCC(O)C(O)[C@@H]2C[C@H](O[Si](C)(C)C(C)(C)C)C[C@H]2[C@H](O[Si](C)(C)C(C)(C)C)C(O)C(O)C(=O)O1 (stereo not given in full)
## Result 43.2

## Task Dear colleague, I am looking for the recorded TGI of the following compound: O=C(/C=C/c1ccccc1)c1ccc(NCc2nc3ccccc3[nH]2)cc1
## Result 24

----------
Measured TGI by item
Test system: SK-MEL-2 melanoma
assayExplanation: NCI tumour cell line growth inhibition, 48 h

Worked examples follow.
1) CN(C)CCNC(=O)c1cccc2nc(-c3ccccc3)oc12 | > 100 µM
2) CCOC(=O)C1SC(=Nc2ccc(Cl)cc2)N=C1C (stereo not drawn) | 38.5 µM
3) Nc1nn2c(=O)c3ccccc3nc2s1 | > 100 µM
4) COc1ccc2[nH]c3c(c2c1)[C@H](C)C[C@@H]1C(=O)N(c2ccccc2)C(=O)[C@H]31 | > 100 µM
5) NS(=O)(=O)c1cccc(NC(=S)NC(=O)Nc2ccc(Cl)c(Cl)c2)c1 | 40.2 µM
6) CCNC(=O)COc1ccc(Cl)cc1Cl | > 100 µM
7) CCC(C(=O)C(=O)OC)P1(=O)OC(C)(C)CN1C(C)(C)C (stereo not drawn) | > 100 µM

## Task // lookup TGI | system=SK-MEL-2 melanoma | key= COCCOCCOC1=CC(=O)c2c(O)ccc(O)c2C1=O
## Result 3.47 µM

----------
System: SK-MEL-28 melanoma
assayExplanation: NCI tumour cell line growth inhibition, 48 h
Measured GI50 by item

Worked examples follow.
1. CCCCn1c(-c2ccc(C(=O)O/N=C(\N)c3ccc4c(c3)OCO4)cc2)nc(-c2ccccc2)c1-c1ccccc1 | 5.69 µM
2. Cc1ccc(NC(=O)c2cc(S(=O)(=O)N3C(=O)NC(=O)NS3(=O)=O)c(S)cc2Cl)cc1 | 34.4 µM
3. Cc1ccc(-c2nc3nc(-c4ccc(F)cc4)nc(N4CCCNCC4)c3o2)cc1 | 1.79 µM
4. O=C(N[C@@H](C[Se][Se]C[C@H](NC(=O)c1ccc(Br)cc1F)C(=O)O)C(=O)O)c1ccc(Br)cc1F | > 100 µM
5. C=C1C(=O)O[C@H]2[C@H]1CC/C(C=Nc1c(N)cc(C(F)(F)F)cc1Br)=C\CC[C@@]1(C)O[C@@H]21 | 1.88 µM

## Task // lookup GI50 | system=SK-MEL-28 melanoma | key= O=C(O)[C@@H](Cc1ccc2ccccc2c1)NC(=O)n1c2ccccc2c2ccccc21
## Result 11.4 µM

## Task // lookup GI50 | system=SK-MEL-28 melanoma | key= N#Cc1ccc(NC(=O)C(CC(=O)OCc2ccccc2)NC(=O)OCc2ccccc2)cc1 (centres undefined)
## Result > 100 µM

## Task // lookup GI50 | system=SK-MEL-28 melanoma | key= COc1ccc(CN2C3CC2CN(c2ccc(-c4cc(OCC(C)(C)O)cn5ncc(C#N)c45)cn2)C3)cn1
## Result > 100 µM

## Task // lookup GI50 | system=SK-MEL-28 melanoma | key= CCOC(=O)/C(C#N)=C\C=C(/Cl)c1ccc(Cl)cc1
## Result 15.5 µM

Where these numbers come from: PubChem BioAssay (NCI)
